Reference for the values: BigSolDB 2.1

# Experimental setup: in 2-methoxyethanol, 308.15 K
Test readout: solubility (mole fraction)
Form: value (number only, do not type unit).

// returns reported solubility (mole fraction) for input CN(C)NC(=O)CCC(=O)O
0.0116

###

# Experimental setup: in NMP, 318.15 K
Test readout: solubility (mole fraction)
Form: value (number only, do not type unit).

// returns reported solubility (mole fraction) for input CN(C)NC(=O)CCC(=O)O
0.09

###

# Experimental setup: in 2-methoxyethanol, 303.15 K
Test readout: solubility (mole fraction)
Form: value (number only, do not type unit).

// returns reported solubility (mole fraction) for input CN(C)NC(=O)CCC(=O)O
0.0096

###

# Experimental setup: in NMP, 308.15 K
Test readout: solubility (mole fraction)
Form: value (number only, do not type unit).

// returns reported solubility (mole fraction) for input CN(C)NC(=O)CCC(=O)O
0.0714

###

# Experimental setup: in 2-methoxyethanol, 283.15 K
Test readout: solubility (mole fraction)
Form: value (number only, do not type unit).

// returns reported solubility (mole fraction) for input CN(C)NC(=O)CCC(=O)O
0.00398

###

# Experimental setup: in methanol, 313.15 K
Test readout: solubility (mole fraction)

// returns reported solubility (mole fraction) for input CN(C)NC(=O)CCC(=O)O
0.0227

###

# Experimental setup: in isopropanol, 303.15 K
Test readout: solubility (mole fraction)
Form: value (number only, do not type unit).

// returns reported solubility (mole fraction) for input CN(C)NC(=O)CCC(=O)O
0.00159

###

# Experimental setup: in n-propanol, 308.15 K
Test readout: solubility (mole fraction)
Form: value (number only, do not type unit).

// returns reported solubility (mole fraction) for input CN(C)NC(=O)CCC(=O)O
0.00367

###

# Experimental setup: in 2-propoxyethanol, 283.15 K
Test readout: solubility (mole fraction)
Form: value (number only, do not type unit).

// returns reported solubility (mole fraction) for input CN(C)NC(=O)CCC(=O)O
0.000405

###

# Experimental setup: in isopropanol, 308.15 K
Test readout: solubility (mole fraction)
Form: value (number only, do not type unit).

// returns reported solubility (mole fraction) for input CN(C)NC(=O)CCC(=O)O
0.0022

###

# Experimental setup: in acetonitrile, 298.15 K
Test readout: solubility (mole fraction)

// returns reported solubility (mole fraction) for input CN(C)NC(=O)CCC(=O)O
0.000386

###

# Experimental setup: in isopropanol, 323.15 K
Test readout: solubility (mole fraction)

// returns reported solubility (mole fraction) for input CN(C)NC(=O)CCC(=O)O
0.00579

###

# Experimental setup: in 2-propoxyethanol, 303.15 K
Test readout: solubility (mole fraction)

// returns reported solubility (mole fraction) for input CN(C)NC(=O)CCC(=O)O
0.00144

###

# Experimental setup: in 2-propoxyethanol, 313.15 K
Test readout: solubility (mole fraction)
Form: value (number only, do not type unit).

// returns reported solubility (mole fraction) for input CN(C)NC(=O)CCC(=O)O
0.00233

###

# Experimental setup: in n-propanol, 323.15 K
Test readout: solubility (mole fraction)
Form: value (number only, do not type unit).

// returns reported solubility (mole fraction) for input CN(C)NC(=O)CCC(=O)O
0.00768
